# Procedure Text: Maximum tolerated dose in mice
# Cond: mouse, in vivo, intravenous; nu/nu mice
Counter-ions that a name gives are not always drawn.
Attribute Measured: MTD at 5 days

Dear colleague, I am looking for the recorded MTD at 5 days of the following molecule: COCCN1CCN(Cc2ccc(-c3n[nH]c4c3C(=O)c3c(NC(=O)NN5CCOCC5)cccc3-4)cc2)CC1 [Compound B16, dihydrochloride]
~100 mg/kg

###

I'd appreciate it if you could supply IC50 values for the items below.
# Tested on: HT29
# Procedure Text: SRB cytotoxicity, HT29 parental cells
# Assay type: cell-based
# Cond: Homo sapiens, HT-29, 72 h
# Experimental: In these experiments, the P-glycoprotein expressing NCI-Adr resistant subline (Vickers et al., 1989. Mol Endocrinology 3 (1):157-164) was used. […] Briefly, cells were plated in 96 well dishes 24 hours prior to compound addition. Where noted, they were exposed to verapamil for 4 hours prior to compound addition and then throughout the treatment period (72 hours). […] Z. Cytotoxicity was measured using the SRB assay according to Shekan et al. as described above in Example 1A.
Structures can show the parent of a compound that is named as a salt.
Give a bare numeral; the unit nM is implied.

May I ask what IC50 has been recorded for COCCN1CCN(Cc2ccc(-c3n[nH]c4c3C(=O)c3c(NC(=O)NN5CCOCC5)cccc3-4)cc2)CC1 [Compound B16, dihydrochloride] ?
77

Same thing, different molecule: O=C1c2c(O)ccc(O)c2C(=O)c2c(NCCNCCO)ccc(NCCNCCO)c21 [Mitoxanthrone, reference compound]
1230
